Molecular target: SIRT1 (Homo sapiens)
Test: Trp mass spectrometry assay of SIRT1 activity
Assay type: biochemical
Conditions: concentration of test compound giving 150% activation of SIRT1; Trp peptide substrate
RESULT_TYPE: Trp EC1.5 (μM)

O=C(Nc1ccncc1)c1cnc2ccc(-c3c(F)cccc3Cl)nn12 ... C (EC1.5>25 μM)
O=C(Nc1cccc(CN2CCOCC2)n1)c1cnc2ccc(-c3c(F)cccc3F)nn12 ... C (EC1.5>25 μM)

* * *

Target: UniProt:Q96EB6
Assay: Trp mass spectrometry assay of SIRT1 activity
Type: biochemical
Settings: Trp assay; concentration giving 150% activation of SIRT1
RESULT_TYPE: Trp EC1.5 (μM)

Cc1cncc(NC(=O)c2cnn3ccc(-c4ccccc4OC(F)(F)F)nc23)c1 [Compound 616] ... A (EC1.5<1 μM)
Cc1cc(-c2ccccc2C(F)(F)F)nn2c(C(=O)Nc3ccnc(N4CCC4)c3)cnc12 [Compound 207] ... A (EC1.5<1 μM)

* * *

Molecular target: UniProtKB Q96EB6
Test: Trp mass spectrometry assay of SIRT1 activity
Format: biochemical
Details: Trp assay; percent maximum fold activation; read-out: Trp % Fold Act
Provide the recorded Emax for the entries that follow.

**Q:** Notebook: pull reported Emax for UniProtKB Q96EB6, entry Cc1cc(C)c(NC(=O)c2c(C)nn3ccc(-c4ccccc4Br)nc23)cn1 [Compound 826]
**A:** < 350%

**Q:** // map O=C(Nc1ccc(F)cn1)c1cnc2ccc(N3CCCC(C(F)(F)F)C3)nn12 (stereo not drawn) [Compound 900] to recorded Emax (system: UniProtKB Q96EB6)
**A:** < 350%

**Q:** Tell me reported Emax for CC1(C)CCN(c2ccc3ncc(C(=O)Nc4cccnc4)n3n2)C1 [Compound 953] , tested with UniProtKB Q96EB6.
**A:** ≥ 350%

**Q:** Notebook entry, UniProtKB Q96EB6 assay: Emax of CCOc1ccc(NC(=O)c2cnn3ccc(-c4ccccc4OC(F)(F)F)nc23)nn1 [Compound 636] = ?
**A:** < 350%

**Q:** Provide the documented Emax with UniProtKB Q96EB6 as the system for O=C(Nc1cccnn1)c1cnc2ccc(N3CC[C@H](O)C3)nn12 [Compound 984]
**A:** < 350%

**Q:** Which measured Emax belongs to CCn1nccc1NC(=O)c1c(C)nc2ccc(-c3ccccc3C(F)(F)F)nn12 [Compound 674] , tested on UniProtKB Q96EB6?
**A:** ≥ 350%

**Q:** Enter reported Emax observed with UniProtKB Q96EB6 for CCNc1cccc(NC(=O)c2cnc3ccc(-c4ccccc4Cl)nn23)n1 [Compound 326]
**A:** < 350%

**Q:** Recorded Emax for Cc1cnc(NC(=O)c2cnc3ccc(-c4ccccc4OC[C@H](O)CO)nn23)s1 [Compound 820] with UniProtKB Q96EB6, please?
**A:** < 350%

**Q:** Identify the measured Emax of O=C(Nc1cccnn1)c1cnc2ccc(N3CC[C@H](F)C3)nn12 [Compound 856] for UniProtKB Q96EB6.
**A:** < 350%

* * *

Task for the reader: assign each of the following compounds its reported Emax.
Target: SIRT1 (Homo sapiens, UniProt Q96EB6)
Sequence (Q96EB6 whole entry): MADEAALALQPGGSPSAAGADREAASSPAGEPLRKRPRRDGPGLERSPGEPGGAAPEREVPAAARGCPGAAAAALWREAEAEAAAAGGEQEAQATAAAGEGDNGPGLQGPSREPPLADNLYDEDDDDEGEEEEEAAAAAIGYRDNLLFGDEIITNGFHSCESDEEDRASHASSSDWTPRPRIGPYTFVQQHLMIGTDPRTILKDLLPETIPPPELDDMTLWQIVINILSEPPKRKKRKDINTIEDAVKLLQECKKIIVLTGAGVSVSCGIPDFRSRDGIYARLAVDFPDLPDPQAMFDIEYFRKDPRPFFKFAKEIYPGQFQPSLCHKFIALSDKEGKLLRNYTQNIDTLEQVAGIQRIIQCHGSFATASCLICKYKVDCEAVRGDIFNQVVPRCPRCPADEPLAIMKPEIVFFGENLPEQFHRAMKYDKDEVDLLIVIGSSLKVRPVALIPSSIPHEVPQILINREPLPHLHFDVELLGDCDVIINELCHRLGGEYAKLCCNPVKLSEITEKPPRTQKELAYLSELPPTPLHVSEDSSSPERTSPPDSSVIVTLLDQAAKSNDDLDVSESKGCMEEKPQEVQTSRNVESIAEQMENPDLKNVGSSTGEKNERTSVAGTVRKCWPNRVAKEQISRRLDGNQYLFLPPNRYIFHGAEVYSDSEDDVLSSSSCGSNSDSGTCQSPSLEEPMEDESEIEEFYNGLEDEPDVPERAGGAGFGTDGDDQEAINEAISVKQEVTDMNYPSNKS
Assay: TAMRA based mass spectrometry assay of SIRT1 activity
Assay type: biochemical
Details: TAMRA assay; percent maximum fold activation; read-out: TAMRA % Fold Act

**Q:** If you can, please state the reported Emax value of "Cc1nc(C(=O)Nc2cnc3ccc(-c4ccccc4F)nn23)cs1" .
**A:** < 350%

**Q:** Can you look up the measured Emax of "Cc1ccncc1NC(=O)c1cnn2ccc(-c3ccccc3C(F)(F)F)nc12" for me?
**A:** < 350%

**Q:** Please report the recorded Emax for "O=C(Nc1ccccn1)c1c(O)nc2ccc(-c3ccccc3C(F)(F)F)nn12" .
**A:** < 350%

**Q:** Name the recorded Emax for "O=C(Nc1cnc2ccc(-c3ccccc3C(F)(F)F)nn12)c1cccc(OC[C@H](O)CO)n1" .
**A:** ≥ 350%

**Q:** Bench note: what Emax did Cc1cc(C)nc(NC(=O)c2cnc3ccc(-c4ccccc4OCC(O)CO)nn23)c1 (centres unmarked) show?
**A:** ≥ 350%

**Q:** Which Emax value belongs to "Cc1ccc(NC(=O)c2cnn3ccc(-c4ccccc4C(F)(F)F)nc23)cn1" ?
**A:** ≥ 350%

**Q:** Any idea what its Emax is? The compound is "Cc1c(-c2ccccc2C(F)(F)F)nn2c(C(=O)Nc3cccc(OC[C@H](O)CO)n3)cnc2c1C"
**A:** ≥ 350%

**Q:** Bench note: what Emax did "Cc1nc2ccc(-c3cccc(OC[C@H](O)CO)c3)nn2c1C(=O)Nc1ccncc1F" show?
**A:** < 350%

* * *

Target: SIRT1 (Homo sapiens)
Assay: Trp mass spectrometry assay of SIRT1 activity
Assay type: biochemical
Conditions: Trp assay; concentration giving 150% activation of SIRT1
RESULT_TYPE: Trp EC1.5 (μM)

Cc1cnc(C(=O)Nc2c(C)nc3ccc(-c4ccccc4C(F)(F)F)nn23)s1 ... C (EC1.5>25 μM)
CC(C)c1nccc(C(=O)Nc2cnn3ccc(-c4ccccc4OC(F)(F)F)nc23)n1 ... C (EC1.5>25 μM)
Cc1nn2ccc(-c3ccccc3C(F)(F)F)nc2c1C(=O)Nc1ccc(F)cn1 ... A (EC1.5<1 μM)
O=C(Nc1cccnc1N1CCOCC1)c1cnc2ccc(-c3ccccc3C(F)(F)F)nn12 ... C (EC1.5>25 μM)
O=C(Nc1cnc2ccc(-c3ccccc3OC(F)(F)F)nn12)c1cnccn1 ... B (EC1.5 1-25 μM)
O=C(Nc1ccc(OCC(O)CO)nc1)c1cnc2ccc(-c3ccccc3C(F)(F)F)nn12 (centres unmarked) ... B (EC1.5 1-25 μM)

**Q:** What Trp EC1.5 (μM) value was documented for this molecule, "O=C(Nc1cnccn1)c1cnc2ccc(N3CC[C@H](F)C3)nn12" ?
**A:** C (EC1.5>25 μM)

**Q:** # Trp EC1.5 (μM) lookup, item "O=C(Nc1ccc(F)cn1)c1cnc2ccc(-c3ccccc3OC(F)(F)F)nn12"
**A:** A (EC1.5<1 μM)

* * *

Target: SIRT1 (Homo sapiens)
Assay: TAMRA based mass spectrometry assay of SIRT1 activity
Type: biochemical
Details: TAMRA peptide substrate; concentration giving 150% activation of SIRT1
RESULT_TYPE: TAMRA EC1.5

In the examples that follow, each entry is paired with its recorded TAMRA EC1.5.
Cc1cc(C)nc(C(=O)Nc2cnc3ccc(N4CC[C@H](F)C4)nn23)c1 [Compound 566] ... B (EC1.5 1-25 μM)
Cc1nc2c(C)cc(-c3ccccc3C(F)(F)F)nn2c1C(=O)Nc1ccncn1 [Compound 460] ... A (EC1.5<1 μM)
Cc1cc(NC(=O)c2cnc3ccc(-c4ccccc4OC(F)(F)F)nn23)cc(C)n1 [Compound 419] ... A (EC1.5<1 μM)
Cc1cc(C)nc(NC(=O)c2c(C)nc3c(C)cc(-c4ccccc4C(F)(F)F)nn23)c1 [Compound 429] ... A (EC1.5<1 μM)
O=C(Nc1cccnc1)c1ncn2ccc(-c3ccccc3C(F)(F)F)nc12 [Compound 451] ... B (EC1.5 1-25 μM)
Cc1cnc(NC(=O)c2cnn3ccc(-c4ccccc4C(F)(F)F)nc23)s1 [Compound 507] ... A (EC1.5<1 μM)
Cc1cc(-c2ccccc2C(F)(F)F)nn2c(C(=O)Nc3cccc(N4CC5(COC5)C4)n3)cnc12 [Compound 546] ... A (EC1.5<1 μM)
O=C(Nc1ccncn1)c1ncn2ccc(-c3ccccc3C(F)(F)F)nc12 [Compound 452] ... A (EC1.5<1 μM)

**Q:** I would be grateful if you could share the reported TAMRA EC1.5 for O=C(Nc1ncccn1)c1ncn2ccc(-c3ccccc3C(F)(F)F)nc12 [Compound 453] .
**A:** B (EC1.5 1-25 μM)

**Q:** Tell me the measured TAMRA EC1.5 of Cc1nc(C(=O)Nc2cnn3ccc(-c4ccccc4C(F)(F)F)nc23)cs1 [Compound 527] , please.
**A:** A (EC1.5<1 μM)

**Q:** Given COc1nccc(NC(=O)c2c(C)nc3ccc(-c4ccccc4C(F)(F)F)nn23)n1 [Compound 476] , state its recorded TAMRA EC1.5.
**A:** A (EC1.5<1 μM)

**Q:** Suppose we examine the compound Cc1nn2ccc(-c3ccccc3C(F)(F)F)nc2c1NC(=O)c1cccc(CN2CCOCC2)n1 [Compound 573] ; what TAMRA EC1.5 value has been reported?
**A:** B (EC1.5 1-25 μM)

**Q:** Requested read-out: TAMRA EC1.5. Entry: Cc1nc2ccc(-c3ccccc3OC(F)(F)F)nn2c1C(=O)Nc1ccncc1F [Compound 466]
**A:** A (EC1.5<1 μM)

**Q:** Which TAMRA EC1.5 reading was recorded for the compound Cc1cc(-c2ccccc2C(F)(F)F)nn2c(C(=O)Nc3cccnn3)cnc12 [Compound 514] ?
**A:** A (EC1.5<1 μM)

**Q:** Recorded TAMRA EC1.5 of CCOc1nccc(NC(=O)c2cnc3c(C)cc(-c4ccccc4C(F)(F)F)nn23)n1 [Compound 596] , please.
**A:** A (EC1.5<1 μM)

**Q:** For Cc1nc(NC(=O)c2c(C)nc3c(C)cc(-c4ccccc4OC(F)(F)F)nn23)sc1C [Compound 482] , what is its reported TAMRA EC1.5?
**A:** A (EC1.5<1 μM)
